assay: soluble on expression in E. coli; label from the status in PepcDB or PDB records
READOUT: soluble on expression in E. coli

MRNSTDYSPLYRSFIGFDHLASLIDKASQPGKQSSYPPYNIELLAENQYRITMAVAGFREEDIDIESKDNGLIIVGTKQPPANSTQESEATTRHFLHQGIAERNFERKFQLGEHVKVIGAFMENGLLHVDLEREIPEALKSRKIAINGKSLLNGNS    not soluble
MPKESLLRELSALREQLEQQPPLNEEQRAELELLIRDIELKLANEDALNEGSLVDGVNLAVERFEVSHPTLAGTLRSIVQSLANMGI    not soluble
MYMASISLKKGQKVDLTKTNPGLSKVLVGLGWDTNRYDGQNDFDLDVSIFLVGANGKVSGAEDFVFYNNPKGANGAVEHLGDNRTGEGEGDDEAIKVDLKNVPAHIERICFTITIYDGEGRSQNFGQVSNSFVRILDEEKNAELIRYDLGEDFSIETAVVVGELYRHAGDWKFNAIGSGFQGGLASLCNNFGLDVE    not soluble
